Attribution: the supplement of paper PMC6555819

system: PPARg DBDmut:RXRa IVT, anti-PPARg (DBD mutation: PPARg1 K132A/R137A, NR concentration 270 nM, RXRa partner concentration 90 nM); test: PBM binding z-score (relative to random genomic background probes); higher = stronger binding; sequences stand for … in GC…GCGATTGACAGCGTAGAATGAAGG
Entries and their PBM binding z-score

Some sequences with recorded PBM binding z-score:
>>> endpointvalue("CGTCCAAGGTCACAGAGGTCAGTGAATGCCGAGT")
1.12
>>> endpointvalue("CGTCAAAGTTCAACTAAGGTCACGTAAAGCACGC")
0.74
>>> endpointvalue("CGAACTAGGTCGTCCAGGACAGTGAATACATTGA")
0.213
>>> endpointvalue("ATTTGTAGGTTACATCCGGGTCATTCAGGCTATG")
3.31
>>> endpointvalue("AGTCAAAGTGCATCTAGGTAACGTAAGATATGCT")
0.878
>>> endpointvalue("TCGCCTAGGTCATGGGCCAGTATACCACGCGAAC")
0.306
>>> endpointvalue("CGCACTAGGTCATCCAGGACAGTGAATACATTGA")
2.66
>>> endpointvalue("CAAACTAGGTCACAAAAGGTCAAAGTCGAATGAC")
3.52
>>> endpointvalue("CAAACTAGGTCAAGGTCTAAGTCGGTTTGTGCCA")
4.39
>>> endpointvalue("AGAATGAGGTTAAACGTAGATCAGGGAAGAAAGT")
1.56

Please give the measured PBM binding z-score for this sequence: `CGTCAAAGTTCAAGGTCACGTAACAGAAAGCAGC`
0.668

Same question for `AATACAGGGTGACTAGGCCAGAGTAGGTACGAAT` please.
1.24

* * *

test system: PXR homodimer (NR concentration 270 nM); test: PBM binding z-score (relative to random genomic background probes); higher = stronger binding; sequences stand for … in GC…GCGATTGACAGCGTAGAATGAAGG
parameter: PBM binding z-score

Examples with answers:
>>> endpointvalue("CGTCAAAGGTCAAAGGTCAGTGAAGAGATGACGG")
1.83
>>> endpointvalue("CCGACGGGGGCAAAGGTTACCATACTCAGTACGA")
0.704
>>> endpointvalue("ATCGAAAGGTCGTGAGGTAAGTATACAGAAAGGC")
0.535
>>> endpointvalue("TATAAAGGGTCAAAGGCCAGAGTACGAATGTCGA")
0.699
>>> endpointvalue("AATACGGGGTCACTAGGCCAGAGTAGGTACGAAT")
1.06
>>> endpointvalue("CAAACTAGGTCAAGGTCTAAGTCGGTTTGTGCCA")
0.201
>>> endpointvalue("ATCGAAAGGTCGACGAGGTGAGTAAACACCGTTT")
0.324
>>> endpointvalue("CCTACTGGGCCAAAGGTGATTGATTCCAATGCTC")
-0.311
>>> endpointvalue("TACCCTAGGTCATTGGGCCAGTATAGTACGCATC")
0.578
>>> endpointvalue("TAGCCGAGGTCATTCAGGGGCCAGTATAGAAAGC")
2.27

PBM binding z-score of `CCGAATAGGTTACGAGGGGGCATTCAGTGCGAAT` on PXR homodimer (NR concentration 270 nM)?
5.9

// query: `CTCGAAAGGTCGTGCTCAGATGAGTATACCAAAC`
0.152
